Test: protein stability index of a GFP-peptide fusion (yeast GPS) (PSI 1-4); higher = more stable; sorted into four equal gates, so the index is relative within each strain
Conditions: ubr1∆
Provide the recorded protein stability index for the entries that follow.
Answers are plain numbers.

Report protein stability index for each item below.
1. KSGKRKPNIILDEDDTN [RPC31]
2. TGVMIGIDLAYNMYDAY [PRP8]
3. SSTGNANTSNNLFGATA [YJL041W/NSP1]
4. EPILGQITLTFISELCS [YML103C/NUP188]
5. QPPTNVQPTIGQLPQLP [SNF5]

[reply]
3.21
2.84
3.29
3.02
3.15

Report protein stability index for each item below.
1. ERKRKSVRGAIVGPDLA [RPS6A]
2. DDIFIPQNMLFEGCYYT [RPC25]
3. DHLVSSIPMGGQSINDS [ARP9]

[reply]
1. 3.01
2. 2.76
3. 3.13

Report protein stability index for each item below.
1. KLRGDLREAPADYWTHA [SNF6]
2. ATNTFGSNQQSSTGGGL [YGR119C/NUP57]
3. VSNILSAFKFIHTQLSE [YJL039C/NUP192]
4. FSKQCLISNAIYGKKTM [ECM29]
5. AISLGLLKGSIDQVNEL [RPN9]
6. RKTWKRQNTLSLWRYRK [RPL15A]

[reply]
2.99
2.9
1.58
1.82
3.21
3.36

###

Provide the recorded protein stability index for the entries that follow.
Experiment: protein stability index of a GFP-peptide fusion (yeast GPS) (PSI 1-4); higher = more stable; sorted into four equal gates, so the index is relative within each strain
Conditions: san1∆
Answers are plain numbers.

| sequence.code | measured |
| --- | --- |
| TARRNVSGDAAALFRLH [SWI3] | 2.78 |
| PVVQVGIFIKILNDSLI [IRR1] | 1.86 |
| QQLRTWKRQISYFLKLL [SRB8] | 1.93 |
| PFLHLRKKTPAGDWKYD [FAS2] | 2.54 |
| DVNTNANANANATANAT [SNF11] | 3.23 |

Report protein stability index for each item below.
1. QVVVDAITNTGPREDTT [RPS5]
2. LVPQLGHVGSVQISNIP [PRP8]
3. LEPGCSVLLHHKTMSIV [RPT2]
4. VANSTKAAFIRVNGSEF [RPT3]
5. KMVGLRGFNNQIMQLKK [SNF2]
6. EKIKDIHNTKLPAYSGE [POP1]

[reply]
1. 2.82
2. 1.91
3. 1.38
4. 1.66
5. 3.04
6. 2.96

###

Provide the recorded protein stability index for the entries that follow.
Experiment: protein stability index of a GFP-peptide fusion (yeast GPS) (PSI 1-4); higher = more stable; sorted into four equal gates, so the index is relative within each strain
Settings: san1∆
One number for each entry.

| sequence.code | reported.endpoint | measured |
| --- | --- | --- |
| FKPSQEPEFHALSQSSL [RRI1] | protein stability index | 2.8 |

Report protein stability index for each item below.
1. DYITEAVFKIVLQPLLP [SNU114]
2. TIFNLPKNKLVPTLEAK [FAS1]
3. PFGAKSTKSNKAKNPLT [RPL8B]
4. CFMHLLVQLFLWDSKEL [RPN3]
5. LEKFLQGRDTSKLPDPE [SRP72]
6. AHTGATPIAGRFTPGSF [RPS0A]

[reply]
1. 1.38
2. 3.08
3. 2.98
4. 1.61
5. 2.38
6. 2.52

Report protein stability index for each item below.
1. SRTRAHAQSKREGRHSG [RPL19A]
2. IKIVSDKKVLVKVQPEG [RPT6]
3. GMVSHKTARGKAALERL [RPL16A]
4. GFYQIKKIVDSKKLNLK [YMR129W/POM152]
5. DSTLILEQLAQHTTESD [RPB2]
6. IAGINKKKGLDENTSGK [PRP28]
7. PSLNKTINGKVNGRTKS [GAL11]

[reply]
1: 2.83; 2: 2.85; 3: 3.17; 4: 2.41; 5: 2.46; 6: 3.44; 7: 2.98

Report protein stability index for each item below.
1. SFLEKPKFAIQDNHHIT [YMR129W/POM152]
2. LESISHAGTAIGIMASD [PRE9]
3. KCIKYSEKLITKYFEPT [ECM29]
4. GMYALRERRIHVTQEDF [RPT6]

[reply]
[2.81, 2.06, 2.84, 1.59]

Report protein stability index for each item below.
1. PQFNSPYDSNNSNTNLN [SWI1]
2. TRLWGSVYYHKGNFRTK [SNU114]

[reply]
1. 2.76
2. 3.35

###

Assay: protein stability index of a GFP-peptide fusion (yeast GPS) (PSI 1-4); higher = more stable; sorted into four equal gates, so the index is relative within each strain
Conditions: pdr5∆
Classification field: MET = protein stability index at or over 3; NOT MET = protein stability index under 3.

Use the examples below as a reference point.
| sequence.code | label.class |
| --- | --- |
| ETFISSMTATADVLAMA [RIP1] | NOT MET |
| HGAASFLKERLMEASDA [RPB2] | NOT MET |
| RTRRLKRKRRKVRARSK [RPL41A] | MET |

[ask] Hi, just wondering whether SANTNNTCTISTSKFES [SWP82] shows protein stability index of 3 or higher.
[reply] NOT MET

[ask] Hi, just wondering whether IEKMSTIVQLCKKKEMS [YIL149C/MLP2] shows protein stability index of 3 or higher.
[reply] NOT MET

[ask] Hi, just wondering whether NDSNPSFSFSIPSKNTP [YLR335W/NUP2] shows protein stability index of 3 or higher.
[reply] NOT MET

[ask] Hi, just wondering whether QDLSRNTLGKGQNCLDI [SNU114] shows protein stability index of 3 or higher.
[reply] MET

[ask] Hi, just wondering whether LPGELAKHAVSEGTRAV [HTB1] shows protein stability index of 3 or higher.
[reply] MET

[ask] Hi, just wondering whether DMAILERYYELAFDKLN [ARP7] shows protein stability index of 3 or higher.
[reply] NOT MET

[ask] Hi, just wondering whether NVVEIWVFSYLRWFELK [SIR3] shows protein stability index of 3 or higher.
[reply] NOT MET

[ask] Hi, just wondering whether HCYPRQLCQITCQILES [RRP46] shows protein stability index of 3 or higher.
[reply] NOT MET

[ask] Hi, just wondering whether ADEQKRSTDVWYEASTW [ARP7] shows protein stability index of 3 or higher.
[reply] NOT MET

[ask] Hi, just wondering whether ELSIRFPQYKLTTFANQ [ARP7] shows protein stability index of 3 or higher.
[reply] NOT MET

[ask] Hi, just wondering whether IFWGIRLAKSTENEIPN [BRR2] shows protein stability index of 3 or higher.
[reply] NOT MET

[ask] Hi, just wondering whether GSVLLTLLNFVSNNVLR [ECM29] shows protein stability index of 3 or higher.
[reply] NOT MET

###

Assay: protein stability index of a GFP-peptide fusion (yeast GPS) (PSI 1-4); higher = more stable; sorted into four equal gates, so the index is relative within each strain
Details: ubr1∆
reported.endpoint: protein stability index

Report protein stability index for each item below.
1. IDNLKDTLKENATEVQK [ITC1]
2. PKGATYGKPTNQGVNEL [RPL15A]
3. KFKRHHSDRYHRVAENW [RPL32]
4. GVIDDSFDVAISTACPR [SMC4]
5. QTIMKMGPLSNIAQMIP [SRP54]

[reply]
1. 2.88
2. 3.29
3. 3.07
4. 2.7
5. 2.99

Report protein stability index for each item below.
1. PKEVDGLEVGPVVQVGI [IRR1]
2. LEANGRSLEKVNNSVSK [SSN2]
3. LCQINKCSTRGLSTDHT [YML103C/NUP188]
4. GAGSAFGFSSSGTAATG [YOR098C/NUP1]
5. LFQLLNALTVGDFDKFD [RPN9]
6. EDLLHYIEEKHPTIYES [POP4]
7. TSLLNKVLKSGSGVDSS [RRP42]

[reply]
3.23
3.37
3.13
3.57
1.8
3.27
3.21

Report protein stability index for each item below.
1. YLTGGQQPTASDNIASL [SMD1]
2. RHLRRTGKVSEFISIYS [RET1]

[reply]
2.61
1.37

###

Assay: protein stability index of a GFP-peptide fusion (yeast GPS) (PSI 1-4); higher = more stable; sorted into four equal gates, so the index is relative within each strain
Conditions: san1∆
reported.endpoint: protein stability index

Example entries begin here.
| sequence.code | protein stability index |
| --- | --- |
| TLLREVVFTRLVQRCWQ [CSN12] | 1.39 |
| GSFNEMKRNCGQIITLF [RMP1] | 2.55 |
| RVFNAKDTTGPKAISNF [YCS4] | 3.18 |

Report protein stability index for each item below.
1. TALALKYLIKYNVFRQH [CSI1]
2. GYTQHGGLRPFGVSFIY [PRE9]
3. WNLEKWREIIEKVRDYE [IRR1]
4. LLVPASDLINKDLVKNN [FAS1]
5. LRFPEHTSSGSVSFKVF [BRR2]

[reply]
1: 1.7; 2: 1.84; 3: 3.3; 4: 3.11; 5: 1.33
